Hey, just so you know, these numbers are from patent US8338414B2.

# System: mouse spleen cells
# method-description: Proliferation inhibition assay for mouse spleen cells
# Assay type: cell-based
# run-conditions: 72 h, LPS 100 μg/mL, 3 days, Alamar Blue, read-out: Inhibition of LPS response
pIC50: −log10 of the molar value.
measurement-kind: pIC50

- OCCN1CCN(c2nc(N3CCOCC3)nc(-n3c(C(F)F)nc4ccccc43)n2)CC1 [Compound 27]: 5.00 to 7.00
- C[C@@H]1OCCN(c2nc(N3CCOCC3)nc(-n3c(C(F)F)nc4ccc(N)cc43)n2)[C@@H]1C (relative stereo) [Compound 8]: 5.00 to 7.00
- Cc1cccc2c1nc(C(F)F)n2-c1nc(N2CCOCC2)nc(N2CCOCC2)n1 [Compound 10]: 4.00 to 5.00
- Nc1nc2ccccc2n1-c1nc(N2CCOCC2)nc(N2CCOCC2)n1 [Compound 6]: 5.00 to 7.00

// moving on: another record for pIC50
What pIC50 value was documented for this compound, Nc1nc2ccccc2n1-c1nc(N2CCOCC2)cc(N2CCOCC2)n1 [Compound 5] ?
5.00 to 7.00
